Recorded log10(IC50) for molecules tested on Melanin-concentrating hormone receptor 1 (Homo sapiens), drawn from a number of studies.
Base-10 log of IC50, unit nM.

Q: Entry "Cc1cc(CN2CCC[C@@H](O)C2)ccc1C(=O)Cn1ncc(OCc2ccccc2)cc1=O" has what log10(IC50)?
A: 1.15

Q: Entry "CNCc1ccc(C(=O)Cn2ncc(OCc3ccc(Br)cn3)cc2=O)c(C)c1" has what log10(IC50)?
A: 1.40

Q: Entry "COc1ccc2c(C)cc(N[C@H]3C[C@@H]4C[C@H]3[C@@H](NCc3cn(C)c5ccccc35)C4)nc2c1" has what log10(IC50)?
A: 1.64

Q: Entry CNC(C)c1ccc(C(=O)Cn2ncc(OCc3ccc(OC)cn3)cc2=O)c(C)c1 (centres unmarked) has what log10(IC50)?
A: 1.34

Q: Entry "Cc1cc(CN2CC[C@H](O)C2)ccc1C(=O)Cn1ccc(OCc2ccc(F)cn2)cc1=O" has what log10(IC50)?
A: 1.85

Q: Entry "Cc1c(C(C)C)nc2ccc(NC(=O)c3ccc(CCc4ccccn4)cc3)cn12" has what log10(IC50)?
A: 0.79

Q: Entry "O=c1cc(OCc2ccc(F)cc2)ccn1-c1ccc2cc(CN3CCC3)cnc2c1" has what log10(IC50)?
A: 0.98

Q: Entry "CC(=O)NC1CCN(Cc2ccc(CCn3ccc(OCc4ccsc4)cc3=O)cc2)CC1" has what log10(IC50)?
A: 0.90

====

Recorded pIC50 for compounds tested on Melanin-concentrating hormone receptor 1 (Homo sapiens), drawn from a number of studies.
For clarity, pIC50 is expressed as the negative log10 of concentration in mol/L.

Q: // map "COc1ccc(COc2cnn(CC(=O)c3ccc(CN4CCC(O)CC4)cc3C)c(=O)c2)nc1" to recorded pIC50 (system: Melanin-concentrating hormone receptor 1 (Homo sapiens))
A: 7.47

Q: // map "CCN(CC)CCOc1ccc(C#Cc2ccc(-c3ccc(F)c(F)c3)cn2)cc1" to recorded pIC50 (system: Melanin-concentrating hormone receptor 1 (Homo sapiens))
A: 7.13

Q: // map Cc1cc(CN2CCC(C)(O)C2)ccc1C(=O)Cn1ccc(OCc2ccccc2)cc1=O (stereo not drawn) to recorded pIC50 (system: Melanin-concentrating hormone receptor 1 (Homo sapiens))
A: 7.59

Q: // map "COC(=O)COc1ccc(-n2ccc(OCc3ccc(F)cc3)cc2=O)cc1OC" to recorded pIC50 (system: Melanin-concentrating hormone receptor 1 (Homo sapiens))
A: 7.21

Q: // map Cc1c(C2CCOC2)nc2ccc(NC(=O)c3ccc(/C(F)=C/c4ccccn4)cc3)cn12 (stereo not drawn) to recorded pIC50 (system: Melanin-concentrating hormone receptor 1 (Homo sapiens))
A: 8.32

Q: // map "Cc1cc(CN2CCC[C@@H](O)C2)ccc1C(=O)Cn1ccc(OCc2ccc(Cl)cn2)cc1=O" to recorded pIC50 (system: Melanin-concentrating hormone receptor 1 (Homo sapiens))
A: 7.47

Q: // map "Cc1cc(CN2CC[C@@H](O)C2)ccc1C(=O)Cn1ncc(OCc2ccccc2)cc1=O" to recorded pIC50 (system: Melanin-concentrating hormone receptor 1 (Homo sapiens))
A: 7.92

Q: // map "COc1cc(-n2ccc(OCc3ccc(Cl)cn3)cc2=O)ccc1OC[C@@H](O)C1CC1" to recorded pIC50 (system: Melanin-concentrating hormone receptor 1 (Homo sapiens))
A: 7.44

Q: // map "COc1ccc(-c2ccc(NCCCc3ccc(CN4CCC(O)CC4)cc3)nn2)cc1" to recorded pIC50 (system: Melanin-concentrating hormone receptor 1 (Homo sapiens))
A: 6.76

Q: // map "CC(C)C(=O)N(C)[C@@H]1CCN(c2ccc3cc(NC(=O)c4ncc(-c5ccccc5)cn4)ccc3n2)C1" to recorded pIC50 (system: Melanin-concentrating hormone receptor 1 (Homo sapiens))
A: 8.39

Q: // map "CCN(CC)CCn1ccc2cc(NC(=O)COc3ccc(C(F)(F)F)cc3Cl)ccc21" to recorded pIC50 (system: Melanin-concentrating hormone receptor 1 (Homo sapiens))
A: 7.39

Q: // map "CCN(C)C/C=C/c1ccc(-n2ccc(OCc3ccc(Cl)cc3)cc2=O)cc1" to recorded pIC50 (system: Melanin-concentrating hormone receptor 1 (Homo sapiens))
A: 8.82

Q: // map "CCO/N=C(\c1ccc(F)c(F)c1)c1ccc(CN2CC3(CCN(c4ccc(F)nc4)C3)C2)cn1" to recorded pIC50 (system: Melanin-concentrating hormone receptor 1 (Homo sapiens))
A: 8.12

Q: // map "CCN1CCN(Cc2ccc(C(=O)Cn3ccc(OCc4ccc(Cl)cn4)cc3=O)c(C)c2)CC1" to recorded pIC50 (system: Melanin-concentrating hormone receptor 1 (Homo sapiens))
A: 7.10

Q: // map "O=C(COc1cccc(Cl)c1)NC1CN(Cc2ccn(-c3ccc(C(F)(F)F)cc3)c2)C1" to recorded pIC50 (system: Melanin-concentrating hormone receptor 1 (Homo sapiens))
A: 7.41

Q: // map "Cc1cc(CN2CCC[C@H](O)C2)ccc1C(=O)Cn1ncc(OCc2ccc(Cl)cn2)cc1=O" to recorded pIC50 (system: Melanin-concentrating hormone receptor 1 (Homo sapiens))
A: 7.60

Q: // map "CC(C)(O)COc1ccc(-n2ccc(OCc3ccc(F)cc3)cc2=O)cc1Cl" to recorded pIC50 (system: Melanin-concentrating hormone receptor 1 (Homo sapiens))
A: 7.96

Q: // map "CC(C)N(C)CCOc1ccc(-n2ccc(OCc3ccc(Cl)cn3)cc2=O)cc1" to recorded pIC50 (system: Melanin-concentrating hormone receptor 1 (Homo sapiens))
A: 8.26

Q: // map "CCN(CC)Cc1ccc(NC(=O)c2cc3cc(OCc4ccccc4)ccc3[nH]2)cc1" to recorded pIC50 (system: Melanin-concentrating hormone receptor 1 (Homo sapiens))
A: 8.25

Q: // map "CCNCc1ccc(C(=O)Cn2ccc(OCc3ccc(Cl)cn3)cc2=O)c(C)c1" to recorded pIC50 (system: Melanin-concentrating hormone receptor 1 (Homo sapiens))
A: 7.59

Q: // map "O=c1cc(OCc2ccccc2)ccn1CCc1ccc2c(c1)CCNC2" to recorded pIC50 (system: Melanin-concentrating hormone receptor 1 (Homo sapiens))
A: 8.10

Q: // map "CNCc1ccc(C(=O)Cn2ncc(OCc3ccc(OC)cn3)cc2=O)c(C)c1" to recorded pIC50 (system: Melanin-concentrating hormone receptor 1 (Homo sapiens))
A: 7.70

Q: // map "CN(C)Cc1ccc(CCn2cnc3cc(-c4ccc(Cl)cc4)ccc3c2=O)cc1" to recorded pIC50 (system: Melanin-concentrating hormone receptor 1 (Homo sapiens))
A: 8.68

Q: // map "CCN(CC)Cc1ccc(CCn2ccc(OCc3ccc(Cl)cn3)cc2=O)cc1" to recorded pIC50 (system: Melanin-concentrating hormone receptor 1 (Homo sapiens))
A: 8.14

Q: // map "O=c1cc(CCc2ccccc2)ccn1-c1ccc(OCCN2CCCC2)cc1" to recorded pIC50 (system: Melanin-concentrating hormone receptor 1 (Homo sapiens))
A: 8.36

Q: // map "CN(C(=O)C#Cc1ccc(CN2CCCC2)cc1)c1ccc(-c2ccc(Cl)cc2)cc1" to recorded pIC50 (system: Melanin-concentrating hormone receptor 1 (Homo sapiens))
A: 8.12

Q: // map "Cc1cc(CN2CCC(O)CC2)ccc1C(=O)Cn1ccc(OCc2ccc(Cl)cn2)cc1=O" to recorded pIC50 (system: Melanin-concentrating hormone receptor 1 (Homo sapiens))
A: 7.44

Q: // map "Cc1cc(CN2CCCC2)ccc1C(=O)Cn1ccc(OCc2ccccc2)cc1=O" to recorded pIC50 (system: Melanin-concentrating hormone receptor 1 (Homo sapiens))
A: 7.96

Q: // map "O=C(Cn1ncc(OCc2ccccc2)cc1=O)c1ccc(CNCC2CC2)cc1" to recorded pIC50 (system: Melanin-concentrating hormone receptor 1 (Homo sapiens))
A: 8.22

Q: // map "Cc1cc(CN2CCC[C@H](O)C2)ccc1C(=O)Cn1ccc(OCc2ccc(Br)cn2)cc1=O" to recorded pIC50 (system: Melanin-concentrating hormone receptor 1 (Homo sapiens))
A: 7.74

Q: // map "Cc1cc(CN2CCCC2)ccc1C(=O)Cn1ccc(OCc2ccc(Br)cn2)cc1=O" to recorded pIC50 (system: Melanin-concentrating hormone receptor 1 (Homo sapiens))
A: 7.77

Q: // map "O=c1cc(OCc2ccc(F)cc2)ccn1-c1ccc(O[C@@H]2C[C@H]3CCCN3C2)cc1" to recorded pIC50 (system: Melanin-concentrating hormone receptor 1 (Homo sapiens))
A: 8.06

Q: // map "O=C(Cn1ncc(OCc2ccccc2)cc1=O)c1ccc(CN2CCC(O)CC2)cc1" to recorded pIC50 (system: Melanin-concentrating hormone receptor 1 (Homo sapiens))
A: 7.92
